target: IDO (SKOV-3 cells) (Homo sapiens, UniProt P14902); construct: This assay utilised cancer cells which expressed either TDO or IDO; host or cells: SKOV-3 ovary adenocarcinoma cells, IFNγ-induced; experiment: IDO cell-based assay (SKOV-3, IFNγ-induced), kynurenine production; conditions: SKOV-3 ovary adenocarcinoma cells, IFNγ 500 ng/ml, 500 μM L-Trp, 48 h, kynurenine by absorbance at 490 nm
Sequence (P14902 whole entry): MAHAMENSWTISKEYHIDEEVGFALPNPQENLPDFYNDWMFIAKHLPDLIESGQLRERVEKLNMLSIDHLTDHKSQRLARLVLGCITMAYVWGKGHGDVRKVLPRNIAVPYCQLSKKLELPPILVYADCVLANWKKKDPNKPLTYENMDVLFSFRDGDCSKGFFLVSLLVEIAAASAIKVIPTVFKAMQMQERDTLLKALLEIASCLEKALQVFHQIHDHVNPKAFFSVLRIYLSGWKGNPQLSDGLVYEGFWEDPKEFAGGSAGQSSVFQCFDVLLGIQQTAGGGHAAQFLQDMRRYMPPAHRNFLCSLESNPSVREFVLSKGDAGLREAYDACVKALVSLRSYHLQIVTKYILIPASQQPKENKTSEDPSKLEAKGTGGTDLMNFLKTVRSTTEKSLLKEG
measured.attribute: IDO cellular assay (SKOV3) pIC50

[[record]]
compound = "CC(C)c1noc(C(C)NC(=O)c2cc3cc(Cl)ccc3[nH]2)n1 (stereo not drawn) [Compound 126]"
measured_attribute = "IDO cellular assay (SKOV3) pIC50"
result = "+++ (+++ = pIC50 ≥5.50)"

[[record]]
compound = "O=C(NC1(c2ccccc2)COC1)c1cc2ccc(C(F)F)cc2[nH]1 [Compound 218]"
measured_attribute = "IDO cellular assay (SKOV3) pIC50"
result = "+ (+ = pIC50 4.50-<5.00)"

[[record]]
compound = "O=C(NCc1cccs1)c1cc2ccccc2[nH]1 [Compound 13]"
measured_attribute = "IDO cellular assay (SKOV3) pIC50"
result = "+ (+ = pIC50 4.50-<5.00)"

[[record]]
compound = "C[C@@H](NS(=O)(=O)c1cc2cc(F)ccc2[nH]1)c1ccccc1 [Compound 127]"
measured_attribute = "IDO cellular assay (SKOV3) pIC50"
result = "+ (+ = pIC50 4.50-<5.00)"

[[record]]
compound = "CC(NC(=O)c1cc2cc(Cl)ccc2[nH]1)c1noc(-c2ccccc2)n1 (stereo not drawn) [Compound 134]"
measured_attribute = "IDO cellular assay (SKOV3) pIC50"
result = "+++ (+++ = pIC50 ≥5.50)"


IDO cellular assay (SKOV3) pIC50 reported for this compound O=C(NC1(c2ccccn2)CC1)c1cc2cc(Cl)ccc2[nH]1 [Compound 155] : +++ (+++ = pIC50 ≥5.50)

IDO cellular assay (SKOV3) pIC50 reported for this compound O=C(NCc1ccc(Cl)cc1)c1cc2cc(Cl)ccc2[nH]1 [Compound 34] : +++ (+++ = pIC50 ≥5.50)

IDO cellular assay (SKOV3) pIC50 reported for this compound C[C@H](NC(=O)c1nc2ccccc2o1)c1ccccc1 [Compound 76] : + (+ = pIC50 4.50-<5.00)

###

target: TDO (A172 cells) (Homo sapiens); construct: This assay utilised cancer cells which expressed either TDO or IDO; host or cells: A172 human glioblastoma cells; assay: TDO cell-based assay (A172), kynurenine production; details: A172 human glioblastoma cells, 500 μM L-Trp, 48 h, kynurenine by absorbance at 490 nm
measured.attribute: TDO cellular assay (A172) pIC50

Below, each entry is followed by its recorded TDO cellular assay (A172) pIC50 result.
[[record]]
compound = "O=C(NC1(c2ccccc2)CC1)c1cc2cc(Br)ccc2[nH]1"
result = "− (− = pIC50 <4.50)"

[[record]]
compound = "CC(NC(=O)c1cc2cc(Cl)ccc2[nH]1)C1CCN(S(C)(=O)=O)CC1 (stereo not shown)"
result = "− (− = pIC50 <4.50)"

[[record]]
compound = "C[C@@H](NC(=O)c1cc2ccc(C(F)F)cc2[nH]1)c1ccccc1"
result = "− (− = pIC50 <4.50)"

[[record]]
compound = "O=C(NC1(c2cocn2)CC1)c1cc2cc(Cl)ccc2[nH]1"
result = "− (− = pIC50 <4.50)"

[[record]]
compound = "Cn1cc(C2(NC(=O)c3cc4cc(Br)ccc4[nH]3)CCC2)cn1"
result = "− (− = pIC50 <4.50)"


TDO cellular assay (A172) pIC50 reported for this compound CC(NC(=O)c1cc2cc(Cl)ccc2[nH]1)c1nc(-c2ccccc2)no1 (stereo not shown) : − (− = pIC50 <4.50)

TDO cellular assay (A172) pIC50 reported for this compound COc1ccc2cc(C(=O)Nc3cccc4ncccc34)[nH]c2c1 : − (− = pIC50 <4.50)

TDO cellular assay (A172) pIC50 reported for this compound COCCN(C)C(=O)c1ccc(C(C)NC(=O)c2cc3cc(Cl)ccc3[nH]2)cc1 (stereo not shown) : + (+ = pIC50 4.50-<5.00)

###

biological target: TDO (A172 cells) (Homo sapiens); construct: This assay utilised cancer cells which expressed either TDO or IDO; host or cells: A172 human glioblastoma cells; assay: TDO cell-based assay (A172), kynurenine production; details: A172 human glioblastoma cells, 500 μM L-Trp, 48 h, kynurenine by absorbance at 490 nm
measured.attribute: TDO cellular assay (A172) pIC50

[[record]]
molecule = "O=C(Nc1cccc2ccccc12)c1cc2ccc(F)cc2[nH]1"
measured_target = "TDO (A172 cells) (Homo sapiens)"
result = "− (− = pIC50 <4.50)"

[[record]]
molecule = "Cn1cc(C2(NC(=O)c3cc4c(F)c(Cl)ccc4[nH]3)CC2)cn1"
measured_target = "TDO (A172 cells) (Homo sapiens)"
result = "− (− = pIC50 <4.50)"

[[record]]
molecule = "COc1ccc(-n2cc(C(C)NC(=O)c3cc4cc(Cl)ccc4[nH]3)cn2)cc1 (centres unmarked)"
measured_target = "TDO (A172 cells) (Homo sapiens)"
result = "− (− = pIC50 <4.50)"

[[record]]
molecule = "Cn1cc(C2(NC(=O)c3cc4cc(C#N)ccc4[nH]3)COC2)cn1"
measured_target = "TDO (A172 cells) (Homo sapiens)"
result = "− (− = pIC50 <4.50)"


###

molecular target: TDO (A172 cells) (Homo sapiens, UniProt P48775); construct: This assay utilised cancer cells which expressed either TDO or IDO; host or cells: A172 human glioblastoma cells; assay: TDO cell-based assay (A172), kynurenine production; settings: A172 human glioblastoma cells, 500 μM L-Trp, 48 h, kynurenine by absorbance at 490 nm
Sequence (P48775 whole entry): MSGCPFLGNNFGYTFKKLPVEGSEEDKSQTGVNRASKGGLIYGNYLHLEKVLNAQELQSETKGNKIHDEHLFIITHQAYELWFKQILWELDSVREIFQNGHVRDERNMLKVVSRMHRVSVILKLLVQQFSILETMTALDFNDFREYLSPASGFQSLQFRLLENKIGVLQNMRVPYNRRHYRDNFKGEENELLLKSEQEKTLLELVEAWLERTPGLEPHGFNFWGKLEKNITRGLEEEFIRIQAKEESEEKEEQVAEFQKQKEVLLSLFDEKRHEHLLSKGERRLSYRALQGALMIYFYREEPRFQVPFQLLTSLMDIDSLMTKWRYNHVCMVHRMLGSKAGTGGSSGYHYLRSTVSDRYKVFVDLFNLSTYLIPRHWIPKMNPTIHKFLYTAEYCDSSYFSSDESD
measured.attribute: TDO cellular assay (A172) pIC50

Below, each entry is followed by its recorded TDO cellular assay (A172) pIC50 result.
[[record]]
compound = "COc1ccc(-c2noc(C(C)NC(=O)c3cc4cc(Cl)ccc4[nH]3)n2)cc1OC (stereo not drawn)"
measured_attribute = "TDO cellular assay (A172) pIC50"
result = "− (− = pIC50 <4.50)"

[[record]]
compound = "Cc1nc(C2(NC(=O)c3cc4cc(C#N)ccc4[nH]3)CC2)co1"
measured_attribute = "TDO cellular assay (A172) pIC50"
result = "− (− = pIC50 <4.50)"

[[record]]
compound = "Cc1ccc(C(C)NC(=O)c2cc3cc(F)ccc3[nH]2)o1 (stereo not drawn)"
measured_attribute = "TDO cellular assay (A172) pIC50"
result = "+ (+ = pIC50 4.50-<5.00)"

[[record]]
compound = "CC(CN(C)S(C)(=O)=O)NC(=O)c1cc2cc(Cl)ccc2[nH]1 (stereo not drawn)"
measured_attribute = "TDO cellular assay (A172) pIC50"
result = "− (− = pIC50 <4.50)"

[[record]]
compound = "COc1cccc(-c2cc(CNC(=O)c3cc4cc(Cl)ccc4[nH]3)on2)c1"
measured_attribute = "TDO cellular assay (A172) pIC50"
result = "− (− = pIC50 <4.50)"

[[record]]
compound = "O=C(NC(CO)c1ccccc1)c1cc2cc(Cl)ccc2[nH]1 (stereo not drawn)"
measured_attribute = "TDO cellular assay (A172) pIC50"
result = "+ (+ = pIC50 4.50-<5.00)"


# ---- query compound ----
TDO cellular assay (A172) pIC50 reported for this compound O=C(Nc1cccc2ccccc12)c1cc2cc(F)ccc2[nH]1 : − (− = pIC50 <4.50)

###

molecular target: TDO (A172 cells) (Homo sapiens, UniProt P48775); construct: This assay utilised cancer cells which expressed either TDO or IDO; host or cells: A172 human glioblastoma cells; experiment: TDO cell-based assay (A172), kynurenine production; conditions: A172 human glioblastoma cells, 500 μM L-Trp, 48 h, kynurenine by absorbance at 490 nm
measured.attribute: TDO cellular assay (A172) pIC50

Below, each entry is followed by its recorded TDO cellular assay (A172) pIC50 result.
[[record]]
molecule = "CC(C)C(NC(=O)c1cc2cc(Cl)ccc2[nH]1)c1cnn(C)c1 (stereo not drawn)"
measured_attribute = "TDO cellular assay (A172) pIC50"
result = "− (− = pIC50 <4.50)"

[[record]]
molecule = "Cn1cc(C2(NC(=O)c3cc4cc(Cl)cnc4[nH]3)CC2)cn1"
measured_attribute = "TDO cellular assay (A172) pIC50"
result = "− (− = pIC50 <4.50)"

[[record]]
molecule = "C[C@@H](NC(=O)c1cc2cc(Cl)ccc2[nH]1)c1ccc(Cl)cc1"
measured_attribute = "TDO cellular assay (A172) pIC50"
result = "− (− = pIC50 <4.50)"

[[record]]
molecule = "O=C(NC(c1ccccc1)c1ccccc1)c1cc2cc(Cl)ccc2[nH]1"
measured_attribute = "TDO cellular assay (A172) pIC50"
result = "− (− = pIC50 <4.50)"

[[record]]
molecule = "C[C@H](NC(=O)c1cc2c([nH]1)CCCC2)c1ccccc1"
measured_attribute = "TDO cellular assay (A172) pIC50"
result = "+ (+ = pIC50 4.50-<5.00)"

[[record]]
molecule = "COCCc1noc(C(C)NC(=O)c2cc3cc(Cl)ccc3[nH]2)n1 (stereo not drawn)"
measured_attribute = "TDO cellular assay (A172) pIC50"
result = "− (− = pIC50 <4.50)"

[[record]]
molecule = "CC(NC(=O)c1cc2cc(Cl)ccc2[nH]1)c1ccn(C)n1 (stereo not drawn)"
measured_attribute = "TDO cellular assay (A172) pIC50"
result = "− (− = pIC50 <4.50)"

[[record]]
molecule = "CC(NC(=O)c1cc2cc(F)ccc2[nH]1)c1ccncc1 (stereo not drawn)"
measured_attribute = "TDO cellular assay (A172) pIC50"
result = "− (− = pIC50 <4.50)"


TDO cellular assay (A172) pIC50 reported for this molecule CC(NC(=O)c1cc2cc(Cl)ccc2[nH]1)c1ccc(F)cc1 (stereo not drawn) : + (+ = pIC50 4.50-<5.00)
